# Tested on: SR
# Experimental Protocol: NCI tumour cell line growth inhibition, 48 h
Calls of active or inactive are those of the source. Cut-off read from the data, not from the text of the source: active = GI50 up to about 1.1 µM and inactive = higher.
Parameter: GI50. Scope: all listed entries.

Answered cases to consult:
> print(dat)
                                   compound       measured.value
1              Cc1cccc2sc(-c3ccc(O)cc3)nc12     22 µM (inactive)
2  NC(=O)CNC(=O)[C@@H]1CC(OCCC(=O)O)CN1C(=O)C1CCCN1C(=O)OCc1ccccc1 (some centres undefined)  > 100 µM (inactive)
3  O=C(CNc1ccc(Cl)cc1Cl)Nn1c(-c2ccccc2)nc2ccccc2c1=O   13.9 µM (inactive)

API: the following record is the query input.
*Q* Reported GI50, compound Cc1ccccc1NC(=O)C(=O)C(c1cnc2ccc([N+](=O)[O-])cc2n1)[N+](=O)[O-] (centres undefined) : ____
*A* > 100 µM (inactive)

----------
# System: T47D
# Experimental Protocol: NCI tumour cell line growth inhibition, 48 h
Calls of active or inactive are those of the source. No stated cut-off is given here; in the data, active = GI50 up to about 1.1 µM and inactive = higher. Where a SMILES comes first, the peptide text is derived from it. [ ]: non-standard residue; d: D form. The star is where a group is joined. ξ: configuration not given here. ξF = NC(Cc1ccccc1)C(=O)O; Cbz = O=C(OCc1ccccc1)*; Aib = CC(C)(N)C(=O)O; NHNH2 = NN*
Give one outcome, nothing more. List: active, inactive

> print(dat)
                                   molecule     class
1  CC(C)(NC(=O)OCc1ccccc1)C(=O)NC(Cc1ccccc1)C(=O)NN (centres undefined) (Cbz-[Aib]-[ξF]-NHNH2)  inactive
2  O=[N+]([O-])c1ccc(C2ON=C(c3ccccc3)N2C23CC4CC(CC(C4)C2)C3)cc1 (centres undefined)  inactive
3  O=C1NC(O)c2cc3ccccc3cc2O1 (centres undefined)  inactive

*Q* Recorded test call requested for COC1=CC(=O)c2c(c(COC(C)=O)cn2C)C1=O
*A* active

*Q* Recorded test call requested for Nc1nc(N)c2ncn(-c3ccc(Br)cc3)c2n1
*A* inactive

*Q* Recorded test call requested for COCCN(CCNC(=O)c1cccc2c(N)c3cccc(C)c3nc12)CCOC
*A* inactive

----------
# Tested on: HCT-116
# Experimental Protocol: NCI tumour cell line growth inhibition, 48 h
Active and inactive are the calls of the source. No stated cut-off is given here; in the data, active = GI50 up to about 1.1 µM and inactive = higher.
Parameter: GI50. Scope: all listed entries.

> print(dat)
                                   compound  assay.metric       measured.value
1                        O=c1sc2c(s1)SSSSS2          GI50   > 50 µM (inactive)
2                        N#Cc1nc(C2CC2)oc1N          GI50  > 100 µM (inactive)
3                  Sc1nnc(COc2ccc(Cl)cc2)o1          GI50  > 100 µM (inactive)
4  O=C1C=CC(=O)c2c1ccc1c3ccccc3n(-c3ccccc3)c21          GI50   2.37 µM (inactive)
5      CC(C)=CCC/C(C)=C/CC/C(C)=C/CCN(C)CCO          GI50   4.12 µM (inactive)

*Q* HCT-116 / GI50 / Nc1nc(N)c2ncn(-c3ccc(Br)cc3)c2n1 : value?
*A* 25.5 µM (inactive)

*Q* HCT-116 / GI50 / CCOC(=O)CCn1[nH]c(=O)c(Cl)c(Cl)c1=O : value?
*A* > 100 µM (inactive)

*Q* HCT-116 / GI50 / O=c1[nH]nc(Cc2ccccc2)n1/N=C\CC/C=N\n1c(Cc2ccccc2)n[nH]c1=O : value?
*A* 18.5 µM (inactive)

*Q* HCT-116 / GI50 / CN(C(=O)C1=CCC2(CC1)OCCO2)c1ccccc1OS(=O)(=O)C(F)(F)F : value?
*A* > 100 µM (inactive)

*Q* HCT-116 / GI50 / CN[C@H]1CC[C@]23C[C@]24CC[C@]2(C)[C@@H]([C@H](C)N(C)C)CC[C@@]2(C)[C@@H]4CC[C@H]3C1(C)C : value?
*A* 11.4 µM (inactive)
